Values compiled from the supplement of paper PMC10567573.

B1: CSNK1G1 (parent)
chain: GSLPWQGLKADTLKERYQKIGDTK

variants of: B1; assay: protein stability index of a GFP-peptide fusion (GPS, HEK-293T) (PSI 1-6); higher = more stable; settings: c terminus: a fixed tail appended;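 also: lentivirally expressed fusions sorted by FACS into six bins by GFP to DsRed ratio, PSI derived from sequencing read proportions per bin multiplied by bin number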
Form field: protein stability index (one value per entry).
PROPERTY_LABEL: protein stability index

GSLPWQGLKADWLKERYQKIGDTK [T12W]    3.27
FSLPWQGLKADTLKERYQKIGDTK [G1F]    2.73
GSLPWQGLKADTLKERYQKIGNTK [D22N]    3.2
GSLPWQGLKADTLKERYQKNGDTK [I20N]    4.62
